- System: HepG2
- Method Summary: cytotoxicity call (relative viability < 0.9)
- Run Conditions: 10 µM
Out of some 39,000 compounds screened, about 3,300 (8.5%) were called active. Shown is part of a subset that was picked to be rich in actives.
Readout: cytotoxicity call

Some solved entries appear below for comparison.
> print(dat)
                                 cpd.smiles            readout  observed.result
1                        O=C/C=C/c1ccccc1Cl  cytotoxicity call         inactive
2  C[C@@H]1CCCCO[C@@H](CN(C)C(=O)NC2CCCCC2)[C@@H](C)CN([C@H](C)CO)C(=O)c2cc(NC(=O)c3ccccc3)ccc2O1  cytotoxicity call         inactive
3                     O=C1CN(c2ccccc2)C=NN1  cytotoxicity call         inactive
4  CCS(=O)(=O)N1C[C@]2(C1)CN([C@H](CO)c1c2c2ccc(cc2n1C)OC)S(=O)(=O)c1ccccc1  cytotoxicity call         inactive

Request: Any idea what its cytotoxicity call is? The compound is C[C@H](CO)N1C[C@H](C)[C@@H](CN(C)C(=O)Nc2ccc(C(F)(F)F)cc2)Oc2ccc(NS(=O)(=O)c3ccc(F)cc3)cc2C1=O
Response: inactive

---

- Test system: HepG2
- Method Summary: cytotoxicity call (relative viability < 0.9)
- Run Conditions: 10 µM
The campaign covered roughly 39,000 compounds. About 3,300 (8.5%) were called active. This is one part of a sample in which actives are shown more often than they occur.
Please answer using one outcome listed in active, inactive

Before answering, review these 2 worked examples.
> print(dat)
                                 cpd.smiles  discrete.label
1  COc1ccc(NC(=O)N(C)C[C@H]2OCCCC[C@H](C)Oc3ccc(NS(=O)(=O)c4cccs4)cc3C(=O)N([C@H](C)CO)C[C@@H]2C)cc1        inactive
2  C[C@@H]1CN([C@@H](C)CO)C(=O)c2cc(NC(=O)Cc3cn(C)c4ccccc34)ccc2O[C@@H]1CN(C)S(=O)(=O)c1cn(C)cn1        inactive

Turning to the following compound.
Request: I would be grateful if you could indicate the recorded call for C[C@H]1CCCCO[C@H](CN(C)S(=O)(=O)c2ccccc2)[C@@H](C)CN([C@@H](C)CO)C(=O)c2cc(NC(=O)Nc3ccc(C(F)(F)F)cc3)ccc2O1 .
Response: active

---

- Tested on: HepG2
- Method Summary: cytotoxicity call (relative viability < 0.9)
- Run Conditions: 10 µM
Among all 39,000 compounds or so, about 3,300 (8.5%) were called active. For the sample, actives were picked, then their nearest neighbours and some compounds at random.
Please answer using one outcome listed in active, inactive

Before answering, review these 3 worked examples.
Compound	Discrete Label
CC(C)[C@H]1C(=O)N[C@@H](CCCNC(=N)N)C(=O)NCC(=O)N[C@@H](CC(=O)O)C(=O)N[C@H](Cc2ccccc2)C(=O)N1C	active
C[C@@H](NC(=O)C[C@@H]1C=C[C@H](NC(=O)CN2CCOCC2)[C@H](CO)O1)c1ccccc1	inactive
COc1ccc(NC(=O)N(C)C[C@@H]2OCCCC[C@@H](C)Oc3ccc(NC(=O)NC(C)C)cc3C(=O)N([C@H](C)CO)C[C@H]2C)cc1	inactive

Request: I would be grateful if you could indicate the recorded call for C[C@@H]1CN([C@@H](C)CO)C(=O)c2cc(NC(=O)CCCN(C)C)ccc2O[C@@H](C)CCCCO[C@@H]1CN(C)S(C)(=O)=O .
Response: inactive

---

- Test system: HepG2
- Method Summary: cytotoxicity call (relative viability < 0.9)
- Run Conditions: 10 µM
The campaign covered roughly 39,000 compounds. About 3,300 (8.5%) were called active. This excerpt belongs to a sample that is enriched for actives.
Please answer using one outcome listed in active, inactive

Before answering, review these 3 worked examples.
> print(dat)
                                 cpd.smiles  discrete.label
1  C[C@@H]1CN([C@@H](C)CO)C(=O)c2cc(NC(=O)CCC(F)(F)F)ccc2O[C@H]1CN(C)Cc1ccc(-c2ccccc2)cc1          active
2  C[C@@H]1CN([C@@H](C)CO)C(=O)c2cc(NC(=O)CCC(F)(F)F)ccc2O[C@H]1CN(C)Cc1ccc(Oc2ccccc2)cc1        inactive
3  C[C@@H]1CN([C@H](C)CO)C(=O)c2cc(NC(=O)CCC(F)(F)F)ccc2O[C@@H]1CN(C)Cc1ccc(-c2ccccc2)cc1        inactive

Turning to the following compound.
Request: I would be grateful if you could indicate the recorded call for C[C@H]1CN([C@@H](C)CO)C(=O)c2cc(NC(=O)CCC(F)(F)F)ccc2O[C@H]1CN(C)Cc1ccc(-c2ccccc2)cc1 .
Response: inactive

---

- System: HepG2
- Method Summary: cytotoxicity call (relative viability < 0.9)
- Run Conditions: 10 µM
The campaign covered roughly 39,000 compounds. About 3,300 (8.5%) were called active. This excerpt belongs to a sample that is enriched for actives.
Please answer using one outcome listed in active, inactive

> print(dat)
                                   compound  discrete.label
1  CC(C)(N)c1cc(C(=O)N[C@@H]2CCc3ccc(Oc4ccnc5c4CCC(=O)N5)cc3C2)cc(C(F)(F)F)c1          active
2       O=C(NCCCO)C(=O)NC[C@H]1COc2ccccc2O1        inactive
3            CNc1nc(SCC(N)=O)nc(N2CCOCC2)n1          active
4  CCCCC(=O)OC1(C(=O)CO)C(C)CC2C3CCC4=CC(=O)C=CC4(C)C3(F)C(O)CC21C (centres undefined)        inactive
5         NC(=O)NC(=O)C[C@H]1Nc2ccccc2NC1=O        inactive
6  COc1ccc2c3c(n(c2c1)C)[C@@H](CO)N(C[C@]13CCN(CC1)C(=O)c1cnccn1)C(=O)c1cnccn1        inactive

Request: I would be grateful if you could indicate the recorded call for CN(C)c1nc(SCC(N)=O)nc(N(C)C)n1 .
Response: inactive

Request: I would be grateful if you could indicate the recorded call for Cc1cc(C(=O)Nc2cccc3c2O[C@H](CN(C)S(=O)(=O)c2ccc(F)cc2)[C@@H](C)CN([C@@H](C)CO)C3=O)n(C)n1 .
Response: inactive

Request: I would be grateful if you could indicate the recorded call for O=C(C[C@@H]1C[C@@H]2c3cc(NC(=O)Nc4ccc(C(F)(F)F)cc4)ccc3O[C@@H]2[C@@H](CO)O1)NCc1ccc(Cl)cc1 .
Response: inactive

---

- Tested on: HepG2
- Method Summary: cytotoxicity call (relative viability < 0.9)
- Run Conditions: 10 µM
The campaign covered roughly 39,000 compounds. About 3,300 (8.5%) were called active. This excerpt belongs to a sample that is enriched for actives.
Please answer using one outcome listed in 1 for active, 0 for inactive

Before answering, review these 3 worked examples.
Cpd Smiles	Measured On	Discrete Label
CC[C@H]1OC(=O)[C@H](C)[C@@H](O[C@H]2C[C@@](C)(OC)[C@@H](O)[C@H](C)O2)[C@H](C)[C@@H](O[C@@H]2O[C@H](C)C[C@H](N(C)C)[C@H]2O)[C@](C)(OC)C[C@@H](C)C(=O)[C@H](C)[C@@H](O)[C@]1(C)O	HepG2	0
C[C@H](CO)N1C[C@H](C)[C@@H](CN(C)C(=O)Cc2ccccc2)OCCCC[C@H](C)Oc2ccc(NC(=O)NC3CCCCC3)cc2C1=O	HepG2	0
COc1cccc(NC(=O)N(C)C[C@H]2Oc3cc(C#CC4(O)CCCC4)ccc3S(=O)(=O)N([C@@H](C)CO)C[C@@H]2C)c1	HepG2	0

Request: I would be grateful if you could indicate the recorded call for C[C@@H]1CN([C@H](C)CO)C(=O)c2cc(C#CCN(C)C)cnc2O[C@H]1CN(C)Cc1ccc2c(c1)OCO2 .
Response: 0

Request: I would be grateful if you could indicate the recorded call for COc1ccc(S(=O)(=O)N(C)C[C@H]2Oc3ccc(NS(C)(=O)=O)cc3CC(=O)N([C@@H](C)CO)C[C@@H]2C)cc1 .
Response: 0

Request: I would be grateful if you could indicate the recorded call for COc1cccc(NC(=O)N(C)C[C@@H]2Oc3cc(C#CC4(O)CCCC4)ccc3S(=O)(=O)N([C@H](C)CO)C[C@H]2C)c1 .
Response: 0

Request: I would be grateful if you could indicate the recorded call for C[C@@H]1CN([C@H](C)CO)C(=O)c2cccc(NS(=O)(=O)c3cn(C)cn3)c2O[C@H]1CN(C)Cc1ccc2c(c1)OCO2 .
Response: 0

---

- Test system: HepG2
- Method Summary: cytotoxicity call (relative viability < 0.9)
- Run Conditions: 10 µM
Screen size: about 39,000 compounds; about 3,300 (8.5%) were called active. Only a selection was taken, and actives are over-represented in it overall.
Please answer using one outcome listed in active, inactive

Before answering, review these 8 worked examples.
> print(dat)
                                 cpd.smiles  measured.on  discrete.label
1  CO[C@@H]1CN(C)C(=O)c2ccc(NS(=O)(=O)CC(F)(F)F)cc2OC[C@@H](C)N(C(=O)c2ccc3c(c2)OCO3)C[C@@H]1C        HepG2        inactive
2  COCC#Cc1ccc([C@H]2[C@@H](CO)N3C(=O)CN(C(=O)c4ccncc4)C[C@@H]23)cc1        HepG2        inactive
3  Cc1ccc(S(=O)(=O)N(C)C[C@H]2Oc3ccc(NC(=O)Nc4ccc(C(F)(F)F)cc4)cc3CC(=O)N([C@@H](C)CO)C[C@H]2C)cc1        HepG2          active
4  COc1ccc(NC(=O)N(C)C[C@H]2Oc3c(NS(C)(=O)=O)cccc3C(=O)N([C@@H](C)CO)C[C@H]2C)cc1        HepG2        inactive
5  C[C@H](CO)N1C[C@H](C)[C@@H](CN(C)Cc2ccc(-c3ccccc3)cc2)Oc2ccc(NS(=O)(=O)c3ccc(Cl)cc3)cc2CC1=O        HepG2        inactive
6  C[C@@H]1CN([C@H](C)CO)C(=O)Cc2cc(NS(=O)(=O)c3ccc(Cl)cc3)ccc2O[C@H]1CN(C)Cc1ccc(-c2ccccc2)cc1        HepG2        inactive
7  CN(C)c1ccc(O)c2c1C[C@H]1C[C@H]3[C@H](N(C)C)C(=O)C(C(N)=O)=C(O)[C@@]3(O)C(=O)[C@H]1C2=O        HepG2        inactive
8  C[C@@H]1CN([C@@H](C)CO)C(=O)Cc2cc(NC(=O)Nc3ccc(C(F)(F)F)cc3)ccc2O[C@H]1CN(C)S(C)(=O)=O        HepG2        inactive

Request: I would be grateful if you could indicate the recorded call for C[C@H](CO)N1C[C@H](C)[C@H](CN(C)Cc2ccc(-c3ccccc3)cc2)Oc2ccc(NS(=O)(=O)c3ccc(Cl)cc3)cc2CC1=O .
Response: inactive

Request: I would be grateful if you could indicate the recorded call for C[C@H]1CN([C@@H](C)CO)C(=O)Cc2cc(NS(=O)(=O)c3ccc(Cl)cc3)ccc2O[C@@H]1CN(C)Cc1ccc(-c2ccccc2)cc1 .
Response: inactive

Request: I would be grateful if you could indicate the recorded call for C[C@H]1CN([C@@H](C)CO)C(=O)Cc2cc(NS(=O)(=O)c3ccc(Cl)cc3)ccc2O[C@H]1CN(C)Cc1ccc(-c2ccccc2)cc1 .
Response: active
